These data points were gathered from ChEMBL document CHEMBL1147250.

assay: Selectivity index, ratio of IC50 for human KB cells to IC50 for Plasmodium falciparum K1; format: toxicity, cell-based; details: KB cells (cytotoxicity) versus Plasmodium falciparum K1, read-out: Selectivity Index
A collection of compounds and their measured selectivity ratio
Lab note: record the figure alone, no unit after it.

{"COMPOUND": "COC1=C[C@@H](C)[C@@H]2C[C@H]3OC(OC(=O)c4cccc(Cl)c4)[C@H](O)[C@H]4C(C)=C(OC)C(=O)[C@H]([C@@]2(C)C1=O)[C@]43C (stereo partly drawn)", "selectivity ratio": 112}
{"COMPOUND": "COC1=C[C@@H](C)[C@@H]2C[C@H]3OC(OC4C[C@H]5C(C)=C(OC)C(=O)[C@@H]6[C@@]7(C)C(=O)C(OC)=C[C@@H](C)[C@@H]7C[C@@H](O4)[C@]65C)C[C@H]4C(C)=C(OC)C(=O)[C@H]([C@@]2(C)C1=O)[C@@]34C (stereo partly drawn) [NEOQUASSIN ETHER]", "selectivity ratio": 15.3}
{"COMPOUND": "COC1=C[C@@H](C)[C@@H]2C[C@H]3OC(=O)[C@H]4C(C)=C(OC)C(=O)[C@H]([C@@]2(C)C1=O)[C@]43C [QUASSILACTONE]", "selectivity ratio": 17.7}

Task item: Note down selectivity ratio recorded for COC1=C[C@@H](C)[C@@H]2C[C@H]3O[C@@H](O)[C@H]4C(C)=C(OC)C(=O)[C@H]([C@@]2(C)C1=O)[C@]43C [QUASSILACTOL]
Reply: 8.9

Task item: Note down selectivity ratio recorded for COC1=C[C@@H](C)[C@@H]2C[C@H]3OC(O)C[C@H]4C(C)=C(OC)C(=O)[C@H]([C@@]2(C)C1=O)[C@@]34C (stereo partly drawn) [NEOQUASSIN]
Reply: 1.3
